biological target: UniProt Q9Y233; assay: PDE10 enzyme inhibition, IMAP TR-FRET assay (MPDE10A7 Enzyme Activity and Inhibition); assay type: biochemical; conditions: PDE10 enzyme inhibition; average IC50 data for each compound; read-out: Average IC50
pIC50: −log10 of the molar value.
PROPERTY MEASURED: pIC50

C[C@@H](F)C(=O)N1CCC(c2nccnc2Oc2ccc(C(=O)c3nc4ccccc4[nH]3)cc2)CC1 [drawing 976]
11.30
COc1cncc(-c2nccnc2Oc2ccc(Nc3nc4ccccc4s3)cc2)c1 [drawing 918]
7.91
COCC(=O)N1CCC(c2nccnc2Oc2ccc(C(=O)c3nc4ccccc4[nH]3)cc2)CC1 [drawing 945]
10.44

(1) FC(F)(c1ccc(Oc2nccnc2C2CCOCC2)cc1)c1nc2ccccc2[nH]1
(2) O=C(c1ccc(Oc2nccnc2-c2cccnc2F)cc1)c1nc2ccccc2[nH]1
(3) COc1ncccc1-c1nccnc1Oc1ccc(C(=O)c2nc3ccccc3[nH]2)cc1 [drawing 866]
(4) COC[C@@H]1CCCN1c1nccnc1Oc1ccc(C(=O)c2nc3ccccc3[nH]2)cc1
## Task In this exercise, place the 4 compounds in ascending sequence of their recorded pIC50. To answer, write out the labels according to the requested order.
## Result 1, 2, 4, 3
(1: 7.28, 2: 8.45, 4: 8.86, 3: 9.49)

(I) Fc1cccc2nc(Nc3ccc(Oc4nccnc4Cl)cc3)sc12 [drawing 826]
(II) COc1cccc2nc(Nc3ccc(Oc4nccnc4C4CCOCC4)cc3)[nH]c12 [drawing 941]
## Task Lower value of pIC50 belongs to which: I or II ? Your answer should be the label of the entry you select.
## Result I

(I) CC(C)(C)OC(=O)N1CC=C(c2nccnc2Oc2ccc(Nc3nc4ccccc4s3)c(F)c2)CC1 [drawing 983]
(II) OCc1ccc(-c2nccnc2Oc2ccc(Nc3nc4ccccc4s3)cc2)cn1 [drawing 804]
## Task I'd appreciate it if you could identify which of I and II has the greater pIC50. Your answer should be the label of the entry you select.
## Result II
(II: 8.39, I: 7.15)

(A) O=C(c1ccc(Oc2nccnc2N2CCC[C@H]2CO)cc1)c1nc2ccccc2[nH]1
(B) CC(=O)N1CC[C@@H](c2nccnc2Oc2ccc(C(=O)c3nc4ccccc4[nH]3)cc2)C1 (stereo in doubt)
(C) CC1(C)C=C(c2nccnc2Oc2ccc(C(=O)c3nc4ccccc4[nH]3)cc2)C(=O)CC1 [drawing 916]
(D) O[C@@H]1CCC[C@@H](c2nccnc2Oc2ccc(Nc3nc4ccccc4s3)cc2)C1 [drawing 912]
## Task In this exercise, place the 4 compounds in ascending sequence of their recorded pIC50. To answer, write out the labels according to the requested order.
## Result C, B, D, A
(C: 6.78, B: 8.12, D: 8.60, A: 8.95)

(1) O=C1CCCC(c2nccnc2Oc2ccc(Nc3nc4ccccc4s3)cc2)C1 (stereo not drawn)
(2) C[C@H](Cc1ccccn1)NC(=O)c1nccnc1Oc1ccc(C(=O)c2nc3ccccc3[nH]2)cc1 (racemic)
## Task I'd appreciate it if you could identify which of 1 and 2 has the greater pIC50. Your answer should be the label of the entry you select.
## Result 1

====

biological target: PDE10 (UniProt Q9Y233); assay: PDE10 enzyme inhibition, IMAP TR-FRET assay (MPDE10A7 Enzyme Activity and Inhibition); type: biochemical; details: IC50 class against PDE10; read-out: IC50
PROPERTY MEASURED: IC50

O=C(c1ccc(Oc2nccnc2C2CCCOC2)cc1)c1nc2ccccc2[nH]1 (centres unmarked)
< 25 nM
O=C1CN(c2nccnc2Oc2ccc(Nc3nc4ccccc4s3)cc2)CCN1
< 25 nM
CC1CN(c2nccnc2Oc2ccc(Nc3nc4ccccc4s3)cc2)CC(C)O1 (centres unmarked)
25 to 100 nM
O=C(c1ccc(Oc2nccnc2C(=O)NCCO)cc1)c1nc2ccccc2[nH]1
25 to 100 nM

Attention now shifts to the item below.
## Task # get_value(readout='IC50', item= c1ccc2sc(Nc3ccc(Oc4nccnc4N4CCC5(CC4)OCCO5)cc3)nc2c1 )
## Result 25 to 100 nM
